- ASSAY_TARGET: human, mouse or rat recombinant CSE (UniProt P32929)
- TEST_DESCRIPTION: CSE In Vitro Assay
- RUN_CONDITIONS: recombinant CSE 20 ug/ml, 50 uM PLP, DL-homocysteine substrate, 3 hours 37° C.; species of enzyme not given
pIC50: −log10 of the molar value. Counter-ions that a name gives are not always drawn.
READOUT_LABEL: pIC50

Consider the following illustrative entries.
CC/C(C)=N/Nc1nnn[nH]1 : > 5.00
Clc1ccc(/C=N/Nc2nnn[nH]2)c(Cl)c1 : < 4.00
CN(C)c1ccc(/C=N/N(C)c2nnn[nH]2)cc1 : 4.00 to 5.00
CN(C)CCN(N)c1nnn[nH]1 : < 4.00
CC(C)=NN(C)c1nnn[nH]1 : > 5.00
Clc1ccc(/C=N/Nc2nnn[nH]2)cc1 : > 5.00

**Q:** I'd like to know its pIC50. The compound in question is CC(C)=NNc1nnn[nH]1
**A:** > 5.00

**Q:** How about this compound: CCN(N)C(=O)c1nnn[nH]1 [Example 2-33, N-ethyl-1H-tetrazole-5-carbohydrazide]
**A:** < 4.00

**Q:** Now the same for C#CCN(N)c1nnn[nH]1
**A:** > 5.00

**Q:** What would you report for CCN(N)C(=O)Nc1nnn[nH]1 ?
**A:** < 4.00

**Q:** Another compound to look at: CN(C)c1ccc(/C=N/Nc2nnn[nH]2)cc1
**A:** 4.00 to 5.00

**Q:** What do we get for C#CC[C@H](N)C(=O)NS(C)(=O)=O [Example 1-9, hydrochloride] ?
**A:** 4.00 to 5.00
